tested on: COLO 205; test: NCI tumour cell line growth inhibition, 48 h
Calls of active or inactive are those of the source. No stated cut-off is given here; in the data, active = GI50 up to about 1.1 µM and inactive = higher.
// classify into active, inactive

Please share the test call associated with CC(=O)c1nc2ccccc2n1CC(=O)c1ccc([N+](=O)[O-])cc1 .
inactive

What did the test return for COc1cc(NS(C)(=O)=O)ccc1N1Cc2c[nH]c3ccc4nc(C)cc1c4c23 ?
inactive

Please indicate how the test categorized C#C[C@]1(O)[C@@H](CO)O[C@@H](n2ccc(=O)[nH]c2=O)[C@@H]1O .
active

Recorded call for Cc1ccc(NC(=O)CC/C(CC(=O)c2ccc(F)cc2)=N\NC(=O)C(=O)NN)cc1C ?
inactive

Status in this test for Cc1cc(C(F)(F)F)cc(-n2nc(NS(=O)(=O)c3cc(C)c(Cl)cc3S)nc2N)n1 ?
inactive

Each molecule tested received a call. Report the one for COc1cc(C2=C(c3cc(OC)c4ccccc4c3OC)C(=O)c3ccccc3C2=O)c(OC)c2ccccc12 .
inactive

# outcome recorded in this test, key = CCCn1c(CN(Cc2nc3ccccc3n2CCC)Cc2nc3ccccc3n2CCC)nc2ccccc21
inactive

In this assay, the call recorded for COC(=O)C(Cc1ccccc1I)C1=CCC2(CC1)OCCO2 (configuration not stated) was what?
inactive

More entries:
# lookup: test call for Cc1cc2c3c(c1)S(=O)(=O)c1cc(Cl)ccc1N3CCC2
inactive

Query: recorded result category for CCOC(=O)CC(=O)NC1CC2CCC1(C)C2(C)C (configuration not stated) in this test
inactive

Outcome? C1=C\CCCCN2C[C@H]3CCCC/C=C\CCCCN4CC[C@@H]([C@H](CCCCCC/1)C4)[C@H](C3)C2
inactive

Returns: the outcome recorded for O=C(O)C1OC(Oc2cc(O)c3c(=O)cc(-c4ccc(O)cc4)oc3c2)C(O)C(O)C1O (configuration not stated) in this assay.
inactive

Just curious, what result did O=C1CC2(CCNCC2)C(=O)N1N1CCCC1 get here?
inactive

Lab log entry: Cc1cc(Cl)ccc1NC1=NC(=O)C(CC(=O)Nc2ccc(Cl)cc2Cl)S1 (configuration not stated) — outcome as called in the assay?
inactive

Any idea what this test logged for COc1ccc2c(c1)nc1n2C(c2c(Cl)cccc2Cl)SC1 (configuration not stated) ?
inactive

// param item: NC1C=NNC1=O (configuration not stated) ; yields the recorded call
inactive

Hey, what did the test say about CC(=O)Nc1cc2c(cc1O)CC[C@@H]1[C@@H]2CC[C@]2(C)[C@@H](O)CC[C@@H]12 ?
inactive

Outcome? Cc1c2ccnc(C(F)(F)F)c2cc2c1[nH]c1ccccc12
inactive

Assay result, entry CCCCCCCCCCCC(=O)OCCOCCOCCOCCOCCOCc1ccccc1 — outcome?
inactive

Outcome logged for CC(=O)C1=NN(c2ccccc2)C2(S1)SC(c1ccccc1)(c1ccccc1)c1ccccc12 (configuration not stated) in this assay:
inactive

What classification did COc1cc2oc(=O)cc(C)c2cc1O end up with in this test?
inactive

# outcome recorded in this test, key = CC12CCC(/C(=N/c3ccc([N+](=O)[O-])cc3)C1=O)C2(C)C (configuration not stated)
inactive

Please share the test call associated with O=C(/C=C/c1c(O)ccc2ccccc12)c1cccc(O)c1 .
inactive

Short answer needed: outcome of this test for O=c1c2c(sc3ccccc13)NCN(CCc1ccccc1)C2 ?
inactive

Please let me know the test result on file for CCOc1ccccc1/N=N/c1ccc2oc(=O)c(C(C)=O)cc2c1 .
inactive

* * *

test system: KM12; assay: NCI tumour cell line growth inhibition, 48 h
Calls of active or inactive are those of the source. Rule as the data show it: active = GI50 up to about 1.1 µM and inactive = higher.
Provide the reported GI50 of each item.

For reference, reported GI50 for O=C(NCCCCNCCCNC(=O)c1cc(-c2ccccc2)nc2ccccc12)c1cc(-c2ccccc2)nc2ccccc12 stands at 1.7 µM (inactive)

Measured GI50, CN1C(Cl)=NS(=O)(=O)c2ccccc21 : > 100 µM (inactive)

Parameter requested: GI50. Apply to each item below.
1. NC1=Nc2ccccc2Sc2nnc(-c3ccc(Cl)cc3)n21
2. COc1cc(/C=C2\C(=O)N(C(=O)Cc3ccccc3)N=C2C)ccc1O

1. 98.2 µM (inactive)
2. > 100 µM (inactive)

// for each compound below, give its GI50
1. N=C(N)N/N=C/c1c(-c2ccccc2)nc2ccn3c(/C=N/N=C(N)N)c(-c4ccccc4)nc3n12
2. O=[N+]([O-])c1ccc(Sc2c3ccccc3nc3ccccc23)nc1
3. C=C1C(=O)C=C[C@]2(C)CC[C@H]3C(=C)C(=O)O[C@@H]3[C@@H]12
4. COc1cc(C2=C(c3cc(OC)c4ccccc4c3OC)C(=O)c3ccccc3C2=O)c(OC)c2ccccc12
5. COc1cc2c(c(O)c1C)C(=O)CC(c1ccccc1)O2 (stereo not given)
6. CN(C)CC(/C(Cc1ccccc1)=N\NC(=S)NN)c1ccccc1 (stereo not given)

["26.9 µM (inactive)", "23.8 µM (inactive)", "1.61 µM (inactive)", "> 100 µM (inactive)", "62.8 µM (inactive)", "> 100 µM (inactive)"]

* * *

system: KM12; test: NCI tumour cell line growth inhibition, 48 h
Active and inactive are the calls of the source. Cut-off read from the data, not from the text of the source: active = GI50 up to about 1.1 µM and inactive = higher.
Provide the recorded GI50 for the entries that follow.

Record summary for O=C(O)C(=O)Cc1ccc2c(c1)OCO2 : reported GI50 = > 100 µM (inactive)

CC1(C)OC(=S)N(c2ccccc2)C12C=Cc1ccccc1O2 (stereo not drawn) has a reported GI50 of 35 µM (inactive)

// below: GI50 requested for another molecule
For NC(=O)c1cc(N(CCO)CCO)c([N+](=O)[O-])cc1[N+](=O)[O-] the molecule record lists GI50 as > 100 µM (inactive)

* * *

Please respond with reported GI50 for every item in the list.
system: BT-549; assay: NCI tumour cell line growth inhibition, 48 h
Activity calls are given as the source filed them. Cut-off read from the data, not from the text of the source: active = GI50 up to about 1.1 µM and inactive = higher.

In plain terms, COC(C)(C)C1=CCC(C)CC1 (configuration not stated) has a documented GI50 of > 100 µM (inactive)

Value of measured GI50 for the entry Cc1cc(N2CCN(C)CC2)n2nc(-c3ccc(Cl)cc3)nc2n1 : 99.1 µM (inactive)

List the reported GI50 of each compound below.
1. CCOC(=O)C1CCC(=O)N1C(=O)c1cccc(Cl)c1 (configuration not stated)
2. N=c1oc2c(Cl)cc(Cl)cc2cc1C(=O)Nc1ccccn1

1. > 100 µM (inactive)
2. 41.4 µM (inactive)

Hi team, please reply with GI50 for each item in this list.
1. COc1cc2oc(=O)cc(C)c2cc1O
2. O=C(O)C(=O)Cc1ccc2c(c1)OCO2

["> 100 µM (inactive)", "> 100 µM (inactive)"]

Entry under test: CCOC(=O)C1=CC(C)(C(=O)OCC)Nc2c(nc(N)[nH]c2=O)N1 (configuration not stated) . Its GI50 was 7.31 µM (inactive)

* * *

Kindly supply the reported GI50 values for the records listed here.
tested on: SW-620; experiment: NCI tumour cell line growth inhibition, 48 h
Active and inactive are the calls of the source. No stated cut-off is given here; in the data, active = GI50 up to about 1.1 µM and inactive = higher.

The cases that follow already have their GI50 on record.
The reported value for Cc1nn(C(=O)c2ccccc2O)c2c1C(c1ccc([N+](=O)[O-])cc1)SC(=N)N2 (stereo not drawn) in terms of GI50 is 6.17 µM (inactive)

Per the records, this compound ( COP(=O)(OC)C(N)CCSC (stereo not drawn) ) has GI50 equal to > 100 µM (inactive)

Sample CCCCCCCCCCCCCC(=O)NCO ; GI50 observed: > 100 µM (inactive)

Record Cc1cc(O)nc(NNC(C#N)c2cccc([N+](=O)[O-])c2)n1 (stereo not drawn) . Reported GI50: > 100 µM (inactive)

Briefly, GI50 measured for CC(C)N(C(=O)C12CC3CC(CC(C3)C1)C2)C(C)C : > 50 µM (inactive)

Your task in this section: give GI50 for each listed record.
1. O=c1[nH]nc(-c2ccccc2)n1-c1cccc([N+](=O)[O-])c1
2. COC(=O)C12OC(C)(C(CC(=O)OC(C)(C)C)C1=O)C1C(=O)N(c3ccccc3)C(=O)C12 (stereo not drawn)
3. Cc1sc(Cc2ccccc2)nc1-c1ccc(N)cc1
4. CC(=O)NNc1nc(C)c(C(=O)/C=C/c2ccc(/C=C/C(=O)c3sc(NNC(C)=O)nc3C)cc2)s1
5. COC12C=CC(CC1)c1c(O)ccc(O)c12 (stereo not drawn)
6. CCOC(=O)C1=CC(C)(C(=O)OCC)Nc2c(nc(N)[nH]c2=O)N1 (stereo not drawn)
7. COc1cc(Nc2c3ccccc3nc3ccccc23)ccc1NS(C)(=O)=O

["> 100 µM (inactive)", "> 100 µM (inactive)", "23.7 µM (inactive)", "> 100 µM (inactive)", "27.5 µM (inactive)", "> 10 µM (inactive)", "2.61 µM (inactive)"]

Each of the following entries comes with a recorded value; kindly state GI50 for each.
1. CC(C)C1=CC(=O)C(C)(C2=NC(C)(C)CO2)c2ccccc21 (stereo not drawn)
2. COc1ccc(C(=O)CC(c2ccc(OC)c(OC)c2)c2c(O)oc3ccccc3c2=O)cc1OC (stereo not drawn)
3. COC(=O)c1cn(CCCCO)nn1
4. C=CCN1C(N)=C(C(N)=O)S/C1=C1/SC(=S)N(c2ccc(C)cc2)C1=O
5. O=C1/C(=C/c2cccc(O)c2)COc2ccccc21
6. O=C(CCn1ccnc1[N+](=O)[O-])NCCCn1ccnc1[N+](=O)[O-]
7. N#CNc1nc(C(=O)Nc2ccc(Cl)cc2)cc(-c2ccccc2)n1
8. O=C1C=C(Nc2cc(Cl)ccc2Cl)c2ccccc2C1=O

1: > 100 µM (inactive); 2: > 100 µM (inactive); 3: > 100 µM (inactive); 4: > 100 µM (inactive); 5: 2.19 µM (inactive); 6: > 100 µM (inactive); 7: > 100 µM (inactive); 8: 29.3 µM (inactive)
